EXPERIMENTAL_TARGET: fMet-Leu-Phe receptor (Homo sapiens)
Sequence (P21462 whole entry): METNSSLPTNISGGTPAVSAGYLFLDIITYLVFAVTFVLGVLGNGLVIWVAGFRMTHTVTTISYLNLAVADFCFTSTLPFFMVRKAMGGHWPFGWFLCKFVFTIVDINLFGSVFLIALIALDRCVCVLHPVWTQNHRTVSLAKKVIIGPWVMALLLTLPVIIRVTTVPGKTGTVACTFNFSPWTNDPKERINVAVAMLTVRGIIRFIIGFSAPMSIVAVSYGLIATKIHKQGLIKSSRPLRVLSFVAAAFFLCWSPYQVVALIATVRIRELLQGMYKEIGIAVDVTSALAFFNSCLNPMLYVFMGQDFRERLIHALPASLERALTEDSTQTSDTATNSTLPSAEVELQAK
METHOD_SUMMARY: Antagonist activity at formyl peptide receptor in human HL60 cells assessed as inhibition of intracellular calcium mobilization incubated for 5 mins prior to fMLP challenge by Fura-2 method
pKd: −log10 of the molar value.
Decide using pKd: a value greater than or equal to 7 is T, a smaller one is F.

SUBSTANCE_SMILES	EXPERIMENTAL_TARGET	CLASS_NAME
CC(C)C[C@@H](NC(=O)[C@H](CC1=CCCCC1)NC(=O)[C@@H](CC(C)C)NC(=O)[C@H](Cc1ccc(C(=O)c2ccccc2)cc1)NC(=O)OC(C)(C)C)C(=O)N[C@@H](CC1CCCCC1)C(=O)O	fMet-Leu-Phe receptor (Homo sapiens)	T
CC(C)C[C@@H](NC(=O)[C@H](CC(=O)OC(C)(C)C)NC(=O)[C@@H](CC(C)C)NC(=O)[C@H](Cc1ccccc1)NC(=O)OC(C)(C)C)C(=O)N[C@@H](Cc1ccccc1)C(=O)O	fMet-Leu-Phe receptor (Homo sapiens)	F
CC(C)C[C@@H](NC(=O)[C@H](Cc1ccccc1)NC(=O)[C@@H](CC(C)C)NC(=O)[C@H](Cc1ccc(C(=O)c2ccccc2)cc1)NC(=O)OC(C)(C)C)C(=O)N[C@@H](Cc1ccccc1)C(=O)O	fMet-Leu-Phe receptor (Homo sapiens)	T
